target: HLA-A*23:01; experiment: IEDB peptide-MHC binding, purified MHC/competitive/radioactivity; filed as Kd, often an IC50 or EC50 that approximates it; bounds were set here for any values at or beyond the usual limits of such assays; details: source organism: Influenza A virus (A/Ann Arbor/6/1960(H2N2))
endpoint.label: pKd
Please keep in mind that pKd is minus log10 of the molar concentration; only the number is needed.

Can you look up the measured pKd of RQEMASRGLW for me?
5.76

* * *

target: HLA-A*26:01; assay: IEDB peptide-MHC binding, purified MHC/direct/fluorescence; filed as Kd, often an IC50 or EC50 that approximates it; bounds were set here for any values at or beyond the usual limits of such assays; conditions: source organism: Pseudomonas aeruginosa
endpoint.label: Kd
Write the figure, then the unit, nothing else.

Can you look up the measured Kd of DLPPAIAAE for me?
1.95 µM

* * *

target: HLA-A*69:01; experiment: IEDB peptide-MHC binding, purified MHC/direct/fluorescence; filed as Kd, often an IC50 or EC50 that approximates it; bounds were set here for any values at or beyond the usual limits of such assays; conditions: source organism: Rickettsia prowazekii
pKd: −log10 of the molar value.
endpoint.label: pKd

Can you look up the measured pKd of QFAGGSFDF for me?
≤ 4.70

Same read-out for IYSAEFKNY ?
≤ 4.70

* * *

molecular target: HLA-B*07:02; experiment: IEDB peptide-MHC binding, purified MHC/competitive/fluorescence; filed as Kd, often an IC50 or EC50 that approximates it; bounds were set here for any values at or beyond the usual limits of such assays; conditions: source organism: Mycobacterium leprae
pKd: −log10 of the molar value.
endpoint.label: pKd

What reported pKd corresponds to TVGYMYIMK on HLA-B*07:02?
≤ 4.70

* * *

target: HLA-A*01:01; test: IEDB peptide-MHC binding, purified MHC/direct/fluorescence; filed as Kd, often an IC50 or EC50 that approximates it; bounds were set here for any values at or beyond the usual limits of such assays; conditions: source organism: Influenza A virus (A/whooper swan/Mongolia/6/05(H5N1))
endpoint.label: Kd (nM)
Numbers only here, please. The scale is nM.

Can you look up the measured Kd of SSDDFALIV for me?
113

* * *

biological target: HLA-A*02:12; experiment: IEDB peptide-MHC binding, purified MHC/direct/fluorescence; filed as Kd, often an IC50 or EC50 that approximates it; bounds were set here for any values at or beyond the usual limits of such assays; conditions: source organism: Listeria monocytogenes serotype 4b str. H7858
Assign Kd to each entry below.

Can you look up the measured Kd of FPDGKPFTL for me?
≥ 20 µM

Same read-out for ERYPGGVSL ?
≥ 20 µM

* * *

molecular target: HLA-B*51:01; test: IEDB peptide-MHC binding, purified MHC/competitive/fluorescence; filed as Kd, often an IC50 or EC50 that approximates it; bounds were set here for any values at or beyond the usual limits of such assays; conditions: source organism: Salmonella enterica subsp. enterica serovar Paratyphi A str. AKU_12601
pKd: −log10 of the molar value.
endpoint.label: pKd

Can you look up the measured pKd of AMDTHLYFE for me?
≤ 4.70

* * *

biological target: HLA-A*24:02; experiment: IEDB peptide-MHC binding, purified MHC/competitive/radioactivity; filed as Kd, often an IC50 or EC50 that approximates it; bounds were set here for any values at or beyond the usual limits of such assays; settings: source organism: Dengue virus 3 Martinique/1243/1999
endpoint.label: Kd
Write the figure, then the unit, nothing else.

What reported Kd corresponds to VFFTFVLLL on HLA-A*24:02?
258 nM
